Quick reference for kon among some binders
Target: recombinant human CD3ε (1-27) peptide with a C-terminal Tencon25 fusion (human) (UniProt P07766)
Sequence (P07766 22-48): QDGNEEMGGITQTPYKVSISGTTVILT
Experiment: ProteOn SPR, mAb captured by anti-human Fc, antigen as analyte
Give the quantity in M⁻¹ s⁻¹, number only.

A selection of reference data follows.
[[record]]
binder = "CD3B312 (antibody, V domains shown) VH: QVQLQQSGPRLVRPSQTLSLTCAISGDSVFNNNAAWSWIRQSPSRGLEWLGRTYYRSKWLYDYAVSVKSRITVNPDTSRNQFTLQLNSVTPEDTALYYCARGYSSSFDYWGQGTLVTVSS VL: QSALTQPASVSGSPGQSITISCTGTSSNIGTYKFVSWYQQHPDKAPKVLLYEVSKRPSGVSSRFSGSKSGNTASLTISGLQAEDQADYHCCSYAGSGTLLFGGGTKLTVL"
obsvalue = 90800

[[record]]
binder = "BLW-2E6 variant CD3H219/CD3L160 (LC C91L) (antibody, V domains shown) VH: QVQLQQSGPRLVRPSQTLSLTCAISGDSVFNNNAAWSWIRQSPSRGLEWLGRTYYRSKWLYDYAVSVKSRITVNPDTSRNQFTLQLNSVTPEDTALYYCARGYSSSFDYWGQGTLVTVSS VL: QSALTQPASVSGSPGQSITISCTGTSSNIGTYKFVSWYQQHPDKAPKVLLYEVSKRPSGVSSRFSGSKSGNTASLTISGLQAEDQADYHCLSYAGSGTLLFGGGTKLTVL"
obsvalue = 98400

[[record]]
binder = "BLW-2E6 variant CD3H219/CD3L137 (antibody, V domains shown) VH: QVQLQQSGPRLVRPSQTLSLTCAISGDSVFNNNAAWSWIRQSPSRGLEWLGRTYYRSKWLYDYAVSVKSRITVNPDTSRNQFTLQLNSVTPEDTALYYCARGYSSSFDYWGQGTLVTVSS VL: QSALTQPASVSGSPGQSITISCTGTSSNIGTYKFVSWYQQHPGKAPKVMIYEVSKRPSGVSNRFSGSKSGNTASLTISGLQAEDEADYYCCSYAGSGTLLFGGGTKLTVL"
obsvalue = 61300


Let us examine a further case.
Write down kon measured for item CD3B376 (antibody, human IgG4 S228P, lambda, F234A L235A, V domains shown) VH: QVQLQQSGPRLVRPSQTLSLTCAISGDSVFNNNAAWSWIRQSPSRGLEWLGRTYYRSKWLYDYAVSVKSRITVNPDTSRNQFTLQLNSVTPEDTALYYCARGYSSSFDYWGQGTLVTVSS VL: QSALTQPASVSGSPGQSITISCTGTSSNIGTYKFVSWYQQHPDKAPKVLLYEVSKRPSGVSSRFSGSKSGNTASLTISGLQAEDQADYHCVSYAGSGTLLFGGGTKLTVLG 102000
